inhibition values for the compounds below.
- STUDY_TARGET: Ribosomal protein S6 kinase alpha-6 (Homo sapiens) (UniProt Q9UK32);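 also: each value is a mean inhibition of RSK4 from a GSK PKIS panel screen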
- Sequence (Q9UK32 whole entry): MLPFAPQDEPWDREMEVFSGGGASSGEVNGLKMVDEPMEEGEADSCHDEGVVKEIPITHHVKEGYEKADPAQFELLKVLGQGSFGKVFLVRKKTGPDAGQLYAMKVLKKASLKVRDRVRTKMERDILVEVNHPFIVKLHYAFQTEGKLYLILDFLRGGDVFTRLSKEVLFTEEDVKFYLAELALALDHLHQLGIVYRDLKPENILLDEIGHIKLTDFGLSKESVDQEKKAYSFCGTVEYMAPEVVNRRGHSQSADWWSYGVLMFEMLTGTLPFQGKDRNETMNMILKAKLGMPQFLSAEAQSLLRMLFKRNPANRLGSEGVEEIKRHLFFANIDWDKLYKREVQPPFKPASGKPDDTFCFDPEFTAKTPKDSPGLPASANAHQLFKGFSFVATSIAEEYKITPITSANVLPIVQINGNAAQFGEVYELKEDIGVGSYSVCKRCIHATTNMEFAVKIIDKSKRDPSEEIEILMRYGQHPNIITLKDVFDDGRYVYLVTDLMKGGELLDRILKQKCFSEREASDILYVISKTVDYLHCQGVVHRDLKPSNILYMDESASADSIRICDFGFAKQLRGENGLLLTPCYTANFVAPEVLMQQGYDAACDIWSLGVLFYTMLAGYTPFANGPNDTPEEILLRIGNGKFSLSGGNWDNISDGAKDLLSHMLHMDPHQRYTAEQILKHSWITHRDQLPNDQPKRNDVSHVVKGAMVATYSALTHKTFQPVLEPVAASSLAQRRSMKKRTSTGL
- TEST_CONDITIONS: at 1 µM
# unit: % | format: bare number

Known inhibition results, listed for orientation:
CPD_SMILES | inhibition, %
CC1(C)CC(n2cnc(-c3ccc(F)cc3)c2-c2ccnc(N)n2)CC(C)(C)N1 | 0.95
CNC(=O)c1cncc(/C=C/c2ccccc2C)c1 | 0.63
CS(=O)(=O)CCNCc1ccc(-c2ccc3ncnc(Nc4ccc(OCc5ccccc5)cc4)c3c2)o1 | 1.11

The recorded inhibition for CN1CCC(n2cnc(-c3ccc(F)cc3)c2-c2ccnc(NCCO)n2)CC1 is 1.96

The recorded inhibition for N#Cc1ccc2c(-c3ccnc(NC4CC4)n3)c(-c3ccc(F)cc3)nn2c1 is 1.24

The recorded inhibition for COC(=O)Nc1nc2cc(Oc3ccc(NC(=O)Nc4ccccc4)cc3)ccc2[nH]1 is 0.36

The recorded inhibition for NS(=O)(=O)c1ccc(N/N=C2\C(=O)Nc3ccc(C(=O)NCc4ccncc4)cc32)cc1 is 11.3

The recorded inhibition for COc1cccc(Nc2nccc(-c3cnn4ncccc34)n2)c1 is 4.34

The recorded inhibition for N#Cc1cccc(Nc2ncc(-c3ccccc3)o2)c1 is -0.13
